- Tested on: Pichia kudriavzevii
- Experiment Notes: Antifungal activity against Candida krusei ATCC 6258 after 18 to 24 hrs by micro-dilution method
- Format: functional
So I've got a bunch of compounds here, and I need their MIC values.

Example entries and their recorded answers appear below.
Chemical String	MIC
Clc1ccc(-n2cc(CN(Cc3cn(-c4ccc(Cl)cc4)nn3)c3nc4ccccc4s3)nn2)cc1	6.25 mg/L
FC(F)(F)Oc1ccc(-n2cc(CN(Cc3cn(-c4ccc(OC(F)(F)F)cc4)nn3)c3nc4ccccc4s3)nn2)cc1	12.5 mg/L
Cc1cc(F)ccc1-n1cc(CN(Cc2cn(-c3ccc(F)cc3C)nn2)c2nc3ccccc3s2)nn1	> 100 mg/L

Qu. Can you share its MIC? I mean this compound: Clc1ccccc1-n1cc(CN(Cc2cn(-c3ccccc3Cl)nn2)c2nc3ccccc3s2)nn1
Ans. > 100 mg/L

###

Give measured MIC for each item. Keep answers brief.
- Tested on: Candida albicans
- Experiment Notes: Antifungal activity against Candida albicans ATCC 90028 after 18 to 24 hrs by micro-dilution metho
- Format: functional
Give bare numbers, in µg/mL.

Chemical String	Target Desc	Unit Descriptor	MIC
Fc1ccc(-n2cc(CN(Cc3cn(-c4ccc(F)c(Cl)c4)nn3)c3nc4ccccc4s3)nn2)cc1Cl	Candida albicans	µg/mL	6.25

Qu. MIC lookup needed for Clc1ccc(-n2cc(CN(Cc3cn(-c4ccc(Cl)cc4)nn3)c3nc4ccccc4s3)nn2)cc1 , thanks.
Ans. 6.25

###

- Test system: Escherichia coli
- Experiment Notes: Antimicrobial activity against Escherichia coli ATCC 35218 after 18 to 24 hrs by micro-dilution method
- Assay type: functional
Returns: string. Value is 1 if measured MIC is below 20 µg/mL, and 0 if it is greater than or equal to it.

Chemical String	Label Class
Fc1cccc(-n2cc(CN(Cc3cn(-c4cccc(F)c4)nn3)c3nc4ccccc4s3)nn2)c1	0

Qu. Consider the molecule Fc1ccc(-n2cc(CN(Cc3cn(-c4ccc(F)c(Cl)c4)nn3)c3nc4ccccc4s3)nn2)cc1Cl . Is its MIC strictly less than 20 µg/mL?
Ans. 0

Qu. Item Clc1ccc(-n2cc(CN(Cc3cn(-c4ccc(Cl)cc4)nn3)c3nc4ccccc4s3)nn2)cc1 : MIC beneath 20 µg/mL, strictly?
Ans. 1

###

- Tested on: Salmonella typhi
- Experiment Notes: Antimicrobial activity against Salmonella typhi MTCC 3216 after 18 to 24 hrs by micro-dilution method
- Format: functional, Salmonella enterica subsp. enterica serovar Typhi
- Condition Context: Salmonella enterica
Measurement Kind: MIC (µg/mL)
Give bare numbers, in µg/mL.

State the recorded MIC for every item in the following list.
1. Clc1ccc(-n2cc(CN(Cc3cn(-c4ccc(Cl)cc4)nn3)c3nc4ccccc4s3)nn2)cc1
2. Fc1ccc(-n2cc(CN(Cc3cn(-c4ccc(F)cc4F)nn3)c3nc4ccccc4s3)nn2)c(F)c1
3. Clc1cccc(-n2cc(CN(Cc3cn(-c4cccc(Cl)c4Cl)nn3)c3nc4ccccc4s3)nn2)c1Cl
4. Fc1ccc(-n2cc(CN(Cc3cn(-c4ccc(F)c(Cl)c4)nn3)c3nc4ccccc4s3)nn2)cc1Cl
5. Cc1cc(C)cc(-n2cc(CN(Cc3cn(-c4cc(C)cc(C)c4)nn3)c3nc4ccccc4s3)nn2)c1
6. Clc1ccccc1-n1cc(CN(Cc2cn(-c3ccccc3Cl)nn2)c2nc3ccccc3s2)nn1
7. Fc1ccc(-n2cc(CN(Cc3cn(-c4ccc(F)cc4Cl)nn3)c3nc4ccccc4s3)nn2)c(Cl)c1

Ans.
1. 6.25
2. 3.12
3. 100
4. 6.25
5. 100
6. 6.25
7. 6.25
